Below, each of the compounds is paired with its reported log10 of EC50 value.
# Tested on: Human venous whole blood
# Protocol Details: Human whole blood IFN-γ assay;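 note: blood from healthy donors exposed to compound for 1 h before stimulation with anti-CD3 and anti-CD28 at 1 µg/mL each, IFN-γ quantified in supernatant by AlphaLISA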
# Assay type: cell-based
# Protocol Conditions: Homo sapiens, 24 h, human whole blood, anti-CD3 plus anti-CD28, 24 hours; 3 μM reference compound = 100% activation; read-out: INFg Whole Blood Normalized Agonist EC50
// stored as log10 of EC50 expressed in µM

[
  {
    "Compound": "CC(c1c(F)cccc1F)N1C[C@H](C)N(c2c(C#N)c(=O)n(C)c3ccc(C#N)nc23)C[C@H]1C (single isomer, unassigned) [Example 780]",
    "Recorded Value": 1.15
  }
]

For record COc1ccc(C(c2ccc(F)cc2)N2C[C@H](C)N(c3c(C#N)c(=O)n(C)c4ccc(C#N)nc34)C[C@H]2C)nc1 (stereo partly shown) the listed log10 of EC50 is 1.23

According to the records, this compound C[C@@H]1CN(c2c(C#N)c(=O)n(C)c3ccc(C#N)nc23)CCN1Cc1cccc(C(F)(F)F)n1 displays log10 of EC50 of 1.04

Form field log10 of EC50, entry Cc1ccc(C(c2ccc(C)cc2)N2CCN(c3c(C#N)c(=O)n(C)c4ccc(C#N)nc34)C[C@H]2C)cc1 : 0.15

Per the record, Cc1cc(C(C)N2C[C@H](C)N(c3c(C#N)c(=O)n(C)c4ccc(C#N)nc34)C[C@H]2C)no1 (single isomer, unassigned) has log10 of EC50 of 1.30

Form field log10 of EC50, entry C[C@@H]1CN(c2c(C#N)c(=O)n(C)c3ccc(C#N)nc23)CCN1Cc1cccc(C(F)(F)F)c1 : 1.30

The value of log10 of EC50 measured for the compound COC(=O)c1ccc(C(C)N2CCN(c3c(C#N)c(=O)n(C)c4ccc(C#N)nc34)C[C@H]2C)cc1 (stereo partly shown) turned out to be 1.11

Reported log10 of EC50 of CC(c1ccc(OC(F)(F)F)cc1)N1CCN(c2c(C#N)c(=O)n(C)c3ccc(C#N)nc23)C[C@H]1C (single isomer, unassigned) : 1.30

The recorded log10 of EC50 for entry C[C@@H]1CN(c2cc(=O)n(C)c3ccc(C#N)nc23)[C@@H](C)CN1C(c1ccc(F)cc1)c1nc(C2CC2)co1 (single isomer, unassigned) equals -0.11

For C[C@@H]1CN(c2cc(=O)n(C)c3ccc(C#N)nc23)[C@@H](C)CN1C(c1ccc(F)cc1)c1cc(C2CC2)on1 (single isomer, unassigned) [Example 730] the compound record lists log10 of EC50 as -0.06

log10 of EC50 reading for C[C@@H]1CN(c2c(C#N)c(=O)n(C)c3ccc(C#N)nc23)CCN1Cc1ccc(Cl)cc1 : 1.30

The compound listed as C[C@@H]1CN(c2c(C#N)c(=O)n(C)c3ccc(C#N)nc23)CCN1Cc1ccccc1C#N shows log10 of EC50 equal to 1.30

Field log10 of EC50 (entry C[C@@H]1CN(c2c(C#N)c(=O)n(C)c3ccc(C#N)nc23)CCN1Cc1cccc(F)c1 ) reads 1.30

---

# Assayed Target: human DGKα (Homo sapiens)
# Construct: TVMV protease cleavage site (C); Hexa-His (C); made in house; host or cells: Sf9 insect cells (baculovirus, Bac-to-Bac)
# Sequence (P23743 with tags, fused parts or gaps): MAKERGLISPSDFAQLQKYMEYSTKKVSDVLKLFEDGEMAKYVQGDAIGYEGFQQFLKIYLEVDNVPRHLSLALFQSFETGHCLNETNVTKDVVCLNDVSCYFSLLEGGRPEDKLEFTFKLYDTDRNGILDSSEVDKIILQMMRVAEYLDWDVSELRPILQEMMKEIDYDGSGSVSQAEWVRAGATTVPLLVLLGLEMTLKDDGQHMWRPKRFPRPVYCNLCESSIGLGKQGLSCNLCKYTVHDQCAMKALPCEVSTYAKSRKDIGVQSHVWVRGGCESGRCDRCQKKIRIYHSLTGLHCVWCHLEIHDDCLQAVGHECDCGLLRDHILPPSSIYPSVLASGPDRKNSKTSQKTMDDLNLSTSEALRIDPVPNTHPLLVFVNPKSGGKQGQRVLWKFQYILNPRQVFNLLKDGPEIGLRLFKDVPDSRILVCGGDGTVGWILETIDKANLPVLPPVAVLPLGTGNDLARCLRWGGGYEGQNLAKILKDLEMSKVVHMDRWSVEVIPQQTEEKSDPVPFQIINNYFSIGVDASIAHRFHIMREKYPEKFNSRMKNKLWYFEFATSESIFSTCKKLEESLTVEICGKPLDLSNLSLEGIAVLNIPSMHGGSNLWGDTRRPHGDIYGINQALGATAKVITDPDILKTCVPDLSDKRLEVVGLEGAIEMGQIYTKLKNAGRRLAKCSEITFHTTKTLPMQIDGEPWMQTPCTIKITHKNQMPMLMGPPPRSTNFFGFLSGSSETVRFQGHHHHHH
# Protocol Details: DGKα LIPGLO assay (extruded liposome substrate), in vitro DGK inhibition
# Type: biochemical
# Protocol Conditions: DGKα liposome (LIPGLO) assay; read-out: DGKa LIPGLO IC50
Entries and their IC50
The response must be a number in nM with no trailing unit.

Answered examples (5):
[
  {
    "Molecule": "C[C@@H]1CN(c2c(C#N)c(=O)n(C)c3ccc(C#N)nc23)CCN1C(c1ccc(F)cc1)c1cncn1C (single isomer, unassigned) [Example 1018]",
    "Result Unit": "nM",
    "IC50": 81000
  },
  {
    "Molecule": "C[C@@H]1CN(c2c(C#N)c(=O)n(C)c3ccc(C#N)nc23)CCN1Cc1cccc(C(F)(F)F)c1 [Example 1003]",
    "Result Unit": "nM",
    "IC50": 2800
  },
  {
    "Molecule": "CC(c1ccc(OC(F)(F)F)cc1)N1C[C@H](C)N(c2c(C#N)c(=O)n(C)c3ccc(C#N)nc23)C[C@H]1C (single isomer, unassigned) [Example 802]",
    "Result Unit": "nM",
    "IC50": 1300
  },
  {
    "Molecule": "CC(c1ccc(C#N)cc1)N1CCN(c2c(C#N)c(=O)n(C)c3ccc(C#N)nc23)C[C@H]1C (some centres unmarked) [Example 955]",
    "Result Unit": "nM",
    "IC50": 220
  },
  {
    "Molecule": "Cc1cccc(C(C)N2CCN(c3c(C#N)c(=O)n(C)c4ccc(C#N)nc34)C[C@H]2C)n1 (some centres unmarked) [Example 964]",
    "Result Unit": "nM",
    "IC50": 1900
  }
]

Noted for C[C@@H]1CN(c2cc(=O)n(C)c3ccc(C#N)nc23)[C@@H](C)CN1C(c1ccc(F)cc1)c1cc(C(C)(C)C)on1 (single isomer, unassigned) [Example 731] : its IC50 reads 8500

So for Cc1ccc(C(c2ccc(F)cc2)N2CCN(c3c(C#N)c(=O)n(C)c4ccc(C#N)nc34)C[C@H]2C)cc1 (some centres unmarked) [Example 888] , the logged IC50 turned out to be 510

GET /value?item= C[C@@H]1CN(c2c(C#N)c(=O)n(C)c3ccc(C#N)nc23)CCN1Cc1ccc2ccccc2n1 [Example 992] &field=IC50 returns 1300

IC50 for C[C@@H]1CN(c2cc(=O)n(C)c3ccc(C#N)nc23)[C@@H](C)CN1C(c1ccc(OC(F)(F)F)cc1)c1nc(C2CC2)no1 (single isomer, unassigned) [Example 759] is 85
